Consider the following compounds and their measured IC50 readings.
# assayed-target: human recombinant H-PGDS (Homo sapiens)
# Sequence (O60760 whole entry): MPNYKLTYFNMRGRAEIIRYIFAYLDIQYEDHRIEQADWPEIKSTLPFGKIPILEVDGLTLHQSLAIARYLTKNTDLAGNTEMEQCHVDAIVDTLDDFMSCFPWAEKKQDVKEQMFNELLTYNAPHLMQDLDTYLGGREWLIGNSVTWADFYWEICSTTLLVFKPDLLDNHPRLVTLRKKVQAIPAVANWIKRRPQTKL
# assay-method-text: Fluorescence intensity h-PGDS TBA enzyme assay
# Assay type: biochemical
# measurement-setup: Examples up to 622 (and 3a, 3b)
A number alone suffices; assume nM.

[
  {
    "compound": "CCOC(=O)c1cnc(N2CCC(NC(=O)c3ccc(-c4cccc(F)c4)nc3)CC2)cc1N1CCOCC1 [Example 120]",
    "IC50, nM": 3.49
  },
  {
    "compound": "O=C(NC1CCN(Cc2c[nH]c3cc(F)ccc23)CC1)c1ccc(-c2cccc(F)c2)nc1 [Example 183]",
    "IC50, nM": 1.12
  },
  {
    "compound": "COc1ncccc1CN1CCC(NC(=O)c2ccc(-c3cccc(F)c3)nc2)CC1 [Example 460]",
    "IC50, nM": 1.28
  }
]

## Task # returns recorded IC50 (system: human recombinant H-PGDS (Homo sapiens)) for N#Cc1ccc(CN2CCC(NC(=O)c3ccc(-c4cccc(F)c4)nc3)CC2)cc1 [Example 227]
## Result 0.815

## Task Further, for O=C(NC1CCN(Cc2ccn[nH]2)CC1)c1ccc(-c2cccc(F)c2)nc1 [Example 384] ?
## Result 0.959

## Task Please do the same for Cn1nc(-c2ncccn2)nc1CN1CCC(NC(=O)c2ccc(-c3cccc(F)c3)nc2)CC1 [Example 481] as well.
## Result 2.45

## Task Follow-up entry: Cc1ccc(CN2CCC(NC(=O)c3ccc(-c4cccc(F)c4)nc3)CC2)cn1 [Example 354]
## Result 2.92

## Task Now the compound Cn1ncc(CN2CCC(NC(=O)c3ccc(-c4cccc(F)c4)nc3)CC2)c1-c1cccc(F)c1 [Example 507]
## Result 0.551
